The reported numbers originate from ChEMBL document CHEMBL3769338.

Let's go through some IC50 measurements on Cholinesterase (Homo sapiens, UniProt P06276) together.
Sequence (P06276 whole entry): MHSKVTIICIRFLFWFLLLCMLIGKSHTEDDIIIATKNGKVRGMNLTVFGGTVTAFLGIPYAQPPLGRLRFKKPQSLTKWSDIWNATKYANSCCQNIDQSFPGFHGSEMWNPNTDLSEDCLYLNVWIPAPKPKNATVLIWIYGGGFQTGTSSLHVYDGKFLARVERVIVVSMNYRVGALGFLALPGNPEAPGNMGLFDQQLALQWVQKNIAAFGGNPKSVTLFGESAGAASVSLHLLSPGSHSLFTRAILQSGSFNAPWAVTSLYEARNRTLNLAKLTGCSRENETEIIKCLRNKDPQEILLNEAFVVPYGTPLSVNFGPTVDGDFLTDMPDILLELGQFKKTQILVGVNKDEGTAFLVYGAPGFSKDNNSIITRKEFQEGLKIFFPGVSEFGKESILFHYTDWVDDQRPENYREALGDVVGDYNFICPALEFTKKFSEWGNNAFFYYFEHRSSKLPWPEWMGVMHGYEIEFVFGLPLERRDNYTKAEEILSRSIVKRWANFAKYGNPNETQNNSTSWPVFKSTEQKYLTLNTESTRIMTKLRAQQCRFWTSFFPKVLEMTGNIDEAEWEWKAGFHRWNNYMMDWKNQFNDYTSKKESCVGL
// note: answer is a bare numeric in µM

Notebook: pull reported IC50 for Cholinesterase (Homo sapiens, UniProt P06276), entry `COc1ccc(C(=O)N2c3ccccc3[Se]c3ccc(Cl)cc32)cc1OC`
5.7

Continuing:
Notebook: pull reported IC50 for Cholinesterase (Homo sapiens, UniProt P06276), entry `Clc1ccc2c(c1)Nc1ccccc1S2`
19.2

Notebook: pull reported IC50 for Cholinesterase (Homo sapiens, UniProt P06276), entry `COc1cccc(C(=O)N2c3ccccc3[Se]c3ccc(Cl)cc32)c1`
19.3

Notebook: pull reported IC50 for Cholinesterase (Homo sapiens, UniProt P06276), entry `O=C(CCc1ccccc1)N1c2ccccc2[Se]c2ccc(Cl)cc21`
40

Notebook: pull reported IC50 for Cholinesterase (Homo sapiens, UniProt P06276), entry `O=C(c1ccccc1)N1c2ccccc2[Se]c2ccccc21`
22.7

Notebook: pull reported IC50 for Cholinesterase (Homo sapiens, UniProt P06276), entry `O=C(CCc1ccccc1)N1c2ccccc2[Se]c2ccccc21`
38

Notebook: pull reported IC50 for Cholinesterase (Homo sapiens, UniProt P06276), entry `COc1ccc(C(=O)N2c3ccccc3Sc3ccc(Cl)cc32)cc1OC`
32.6

Notebook: pull reported IC50 for Cholinesterase (Homo sapiens, UniProt P06276), entry `O=C(c1ccccc1)N1c2ccccc2[Se]c2ccc(Cl)cc21`
3.8

Notebook: pull reported IC50 for Cholinesterase (Homo sapiens, UniProt P06276), entry `COc1cccc(C(=O)N2c3ccccc3[Se]c3ccccc32)c1`
9.6

Notebook: pull reported IC50 for Cholinesterase (Homo sapiens, UniProt P06276), entry `COc1cccc(C(=O)N2c3ccccc3Sc3ccc(Cl)cc32)c1`
30.8
